target: hCDK1/B (Homo sapiens); assay: hCDK1/B assay; conditions: Table E; read-out: hCDK1/B/IC50 [umol l − 1]
Sequence (P06493 whole entry): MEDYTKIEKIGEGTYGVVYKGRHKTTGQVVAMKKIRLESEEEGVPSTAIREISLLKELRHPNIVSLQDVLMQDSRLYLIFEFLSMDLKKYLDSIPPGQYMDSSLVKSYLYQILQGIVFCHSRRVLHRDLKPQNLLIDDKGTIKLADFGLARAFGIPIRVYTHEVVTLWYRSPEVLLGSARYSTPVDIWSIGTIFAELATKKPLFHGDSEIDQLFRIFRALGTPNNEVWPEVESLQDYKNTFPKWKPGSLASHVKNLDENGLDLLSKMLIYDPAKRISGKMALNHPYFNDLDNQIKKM
Sequence (P14635 whole entry partner): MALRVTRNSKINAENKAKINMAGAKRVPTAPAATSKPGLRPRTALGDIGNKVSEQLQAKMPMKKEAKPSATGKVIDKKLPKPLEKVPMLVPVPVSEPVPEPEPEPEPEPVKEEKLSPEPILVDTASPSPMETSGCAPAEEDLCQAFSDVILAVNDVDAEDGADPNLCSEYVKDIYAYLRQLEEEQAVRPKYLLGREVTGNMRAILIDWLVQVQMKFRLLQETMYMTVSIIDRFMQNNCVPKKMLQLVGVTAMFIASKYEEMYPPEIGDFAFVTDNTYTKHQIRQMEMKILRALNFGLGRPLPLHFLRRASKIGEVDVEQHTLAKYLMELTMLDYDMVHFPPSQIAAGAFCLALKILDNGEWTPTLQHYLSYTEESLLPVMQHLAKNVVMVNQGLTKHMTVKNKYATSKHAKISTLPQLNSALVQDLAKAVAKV
pIC50: −log10 of the molar value.
experimental endpoint: pIC50

[[record]]
molecule = "Cc1cn(C2CCCC2)c2nc(Nc3nccc4ccccc34)ncc12"
result = "< 5.00"

[[record]]
molecule = "Cc1c(C(=O)N(C)C)n(C2CCCC2)c2nc(Nc3ccc(N4CCNCC4)cn3)ncc12"
result = "< 5.00"

[[record]]
molecule = "CCC(CC)n1c(CNCc2ccco2)cc2cnc(Nc3ccc(N4CCN(C(C)=O)CC4)cc3)nc21"
result = "> 5.00"

[[record]]
molecule = "CC(=O)c1c(C)c2cnc(Nc3ccc(N4CCNCC4)cn3)nc2n1C1CCCCCC1"
result = "< 5.00"

[[record]]
molecule = "Cc1cn(C2CCCC2)c2nc(Nc3ccc(CCN4CCOCC4)cc3)ncc12"
result = "> 5.00"

[[record]]
molecule = "Cc1cn(C2CCC(O)C2)c2nc(Nc3ccc(CN4CCOCC4)cc3)ncc12 (stereo not drawn)"
result = "> 5.00"

[[record]]
molecule = "Cc1cn(C2CCC(O)C2)c2nc(Nc3ccc(CN4CCNCC4)cc3)ncc12 (stereo not drawn)"
result = "> 5.00"

[[record]]
molecule = "CCC(CC)n1c(C(=O)Nc2cc[nH]n2)cc2cnc(Nc3ccc(N4CCNCC4)cc3)nc21"
result = "> 5.00"

[[record]]
molecule = "Cc1c(C#N)n(C2CCCC2)c2nc(Nc3ccc(N4CCC(N(C)C)CC4)cc3)ncc12"
result = "> 6.00"

[[record]]
molecule = "CCC(CC)n1c(CNc2cccnc2)cc2cnc(Nc3ccc(N4CCN(C(C)=O)CC4)cc3)nc21"
result = "> 5.00"

[[record]]
molecule = "CCC(CC)n1c(C(=O)Nc2cccnc2)cc2cnc(Nc3ccc(N4CCNCC4)cc3)nc21"
result = "> 5.00"

[[record]]
molecule = "CN(C)C(=O)c1cc2cnc(Nc3ccc(C4CCNCC4)cc3)nc2n1C1CCCC1"
result = "> 5.00"

[[record]]
molecule = "CN(C)C(=O)c1cc2cnc(NCc3ccc(N4CCN(C(=O)OC(C)(C)C)CC4)cc3)nc2n1C1CCCC1"
result = "< 4.82"

[[record]]
molecule = "c1cc(N2CCNCC2)ccc1Nc1ncc2ccn(C3CCCCCC3)c2n1"
result = "< 5.00"

[[record]]
molecule = "Cc1cn(C2CCCC2)c2nc(Nc3ccc(-n4ccnc4)cc3)ncc12"
result = "> 5.00"

[[record]]
molecule = "Cc1cn(C2CCCC2)c2nc(Nc3ccc(N4CCCCC4)cc3)ncc12"
result = "< 5.00"

[[record]]
molecule = "CCC(CC)n1c(C(=O)NC)cc2cnc(Nc3ccc(N4CCNCC4)cc3)nc21"
result = "> 5.00"

[[record]]
molecule = "CC(=O)N1CCN(c2ccc(Nc3ncc4ccn(C5CCC(C)C5)c4n3)cc2)CC1 (stereo not drawn)"
result = "> 5.00"

[[record]]
molecule = "Cc1cn(C2CCCC2)c2nc(Nc3ccc(CN4CCOCC4)cc3)ncc12"
result = "> 5.00"

[[record]]
molecule = "Cc1cn(C2CCCC2)c2nc(Nc3ccc(N(C)C)cc3)ncc12"
result = "< 5.00"

[[record]]
molecule = "CC1CCC(n2ccc3cnc(Nc4ccc(N5CCNCC5)cc4)nc32)C1 (stereo not drawn)"
result = "> 6.00"

[[record]]
molecule = "Cc1c(-c2cnco2)n(C2CCCC2)c2nc(Nc3ccc(N4CCNCC4)cc3)ncc12"
result = "> 6.00"

[[record]]
molecule = "Cc1c(-c2cnco2)n(C2CCCCCC2)c2nc(Nc3ccc(N4CCNCC4)cn3)ncc12"
result = "> 6.00"

[[record]]
molecule = "CN(C)C(=O)c1cc2cnc(Nc3ccc(CN4CCOCC4)cc3)nc2n1C1CCCC1"
result = "> 5.00"

[[record]]
molecule = "CN(C)C(=O)c1cc2cnc(Nc3ccc(N4CCN(C(=O)OC(C)(C)C)CC4)cc3)nc2n1C1CCCC1"
result = "> 5.00"

[[record]]
molecule = "Cc1cn(C2CCCC2)c2nc(Nc3ccc(N4CCOCC4)cn3)ncc12"
result = "< 5.00"

[[record]]
molecule = "Cc1n[nH]c(-c2c(C)c3cnc(Nc4ccc(N5CCNCC5)cn4)nc3n2C2CCCC2)n1"
result = "< 5.00"

